Consider the following compounds and their measured inhibition at 1 µM readings.
- Tested on: cultured mesangial cells
- METHOD NOTES: Protective effect against cell injury of cultured mesangial cells, oxidized LDL-induced LDH leakage
- Assay type: cell-based, rats
- SETUP CONDITIONS: Rattus norvegicus, Mesangial cell; 1 μM; test compounds added immediately before addition of oxidized LDL; oxidized LDL 91 μg/ml, 8 hours; read-out: % cytoprotection 2)

Study these solved cases before continuing.
> print(dat)
                                   compound             target.system  result
1  C=CC(C)c1c(O)c(C(C)(C)C)cc2c1CC1(CCCCCC1)O2 (stereo not shown)  cultured mesangial cells   17.4%
2  CCC(C)c1c(O)c(C(C)(C)C)cc2c1CC1(CCCCCC1)O2 (stereo not shown)  cultured mesangial cells   -4.3%
3                  CC(C)(C)c1cc2c(cc1O)CCO2  cultured mesangial cells  -14.6%
4            CC1(C)Cc2cc(O)c(C(C)(C)C)cc2O1  cultured mesangial cells   11.3%
5   CCCc1c(O)c(C(C)(C)C)cc2c1CC1(CCCCCC1)O2  cultured mesangial cells   29.6%

Observed inhibition at 1 µM on cultured mesangial cells, entry `CC1(C)Cc2c(c(C(C)(C)C)cc(O)c2C(C)(C)C)O1` , equals 32.5%

Observed inhibition at 1 µM on cultured mesangial cells, entry `CC(C)(C)c1cc2c(cc1O)CC1(CCCCCC1)O2` , equals 22%

Observed inhibition at 1 µM on cultured mesangial cells, entry `CC(C)Cc1c(O)c(C(C)(C)C)cc2c1CC1(CCCCCC1)O2` , equals 4.8%

Observed inhibition at 1 µM on cultured mesangial cells, entry CC1Cc2c(c(C(C)(C)C)cc(O)c2C(C)(C)C)O1 (stereo not shown) , equals 40.6%

Observed inhibition at 1 µM on cultured mesangial cells, entry `CCc1c(O)c(C(C)(C)C)cc2c1CC1(CCCCCC1)O2` , equals 23.1%

###

- System: porcine kidney-derived LLC-PK1 cells
- METHOD NOTES: Protective effect against cell injury of porcine kidney-derived LLC-PK1 cells (2), oxidized LDL-induced LDH leakage
- Assay type: cell-based
- SETUP CONDITIONS: Sus scrofa, LLC-PK1; 10 μM; test compounds added 16 hours before addition of oxidized LDL; oxidized LDL 91 μg/ml, 6 hours; read-out: % cytoprotection 1)
ASSAY METRIC: inhibition at 10 µM (%)
# unit: % | format: bare number

> print(dat)
                             compound  unit.abbreviation  measured.number
1  CC(C)c1cc2c(c(C(C)C)c1O)CC(C)(C)O2                  %              100

compound `Cc1c(O)c(C(C)(C)C)cc2c1CC1(CCCCCC1)O2` , inhibition at 10 µM observed: 104

compound C=CC(C)c1c(O)c(C(C)(C)C)cc2c1CC1(CCCCCC1)O2 (stereo not shown) , inhibition at 10 µM observed: 102

compound `Cc1c(O)c(C(C)(C)C)cc2c1CC(C)(C)O2` , inhibition at 10 µM observed: 102

compound `CCCc1c(O)c(C(C)(C)C)cc2c1CC1(CCCCCC1)O2` , inhibition at 10 µM observed: 104
